- test: NCI Yeast Anticancer Drug Screen. Data for the mec2-1 strain (AID 157)
- condition summary: S. cerevisiae mec2-1 strain, at 50.0 µM, hits give high values
- Protocol: Growth inhibition of yeast strains with defined genetic alterations is measured as a screen for potential anti-cancer activity. Selected strains with alterations in DNA damage repair or cell cycle control were exposed to compounds and growth inhibition was measured relative to vehicle treated controls. The strain used in this assay is mec2-1
The panel holds about 79,000 compounds, 15% with a hit somewhere; the sample as a whole holds those more often.
quantity kind: growth inhibition (%)

O=[N+]([O-])O.c1ccc([As+](c2ccccc2)(c2ccccc2)c2ccccc2)cc1: 97.9
CC1=CC23C(COC(=O)C24CO4)C(C(=O)O)=CC3C1C (stereo unspecified) (tested in a mixture with another compound): 29
O=CNNC(=O)C(Cl)Cl: -11.9
CC1(C)Cc2cccc(C=C(C#N)C#N)c2O1: 20.6
c1ccc(-c2sc3cccc[n+]3c2-c2ccccc2)cc1: 0.6
COc1cccc(N2C(=O)C3C(C2=O)C2(Cl)C(Cl)=C(Cl)C3(Cl)C2(Cl)Cl)c1 (stereo unspecified): 45.2

###

- test: NCI Yeast Anticancer Drug Screen. Data for the mec2-1 strain (AID 157)
- condition summary: S. cerevisiae mec2-1 strain, at 50.0 µM
This is part of a sample that, as a whole, favours compounds with a hit. Of some 79,000 tested, about 15% had one in any assay. Active and inactive are the calls of the source. No stated cut-off is given here; in the data, active means growth inhibition above about 70%; inactive means the rest.
Classes used: Yes = active, No = inactive

COCCOC(=O)CCl: No
CC[CH2][Sn](=[O])[c]1ccccc1: Yes
COC(=O)c1ccccc1NP(=O)(O)Oc1ccccc1 (tested in a mixture with another compound): No
Cn1cnc([N+](=O)[O-])c1C(=O)O: No
S=c1[nH]c2ccccc2s1.[Pb]: Yes
COP(=O)(OC)C(=O)c1ccc(C)cc1: No
O=C1CC2OCC=C3CN4CCC56c7ccccc7N1C5C2C3CC46 (stereo unspecified): No
O=c1ccc(N=Cc2ccc(N(CCCl)CCCl)cc2)ccc1O: No
O=C(N/N=C(/CCN1CCCC1)CC(c1ccccc1)c1c(O)c2ccccc2oc1=O)c1ccncc1 (stereo unspecified): Yes
O=C(CCC(=O)Oc1ccc(S(=O)(=O)F)cc1)Oc1ccc(S(=O)(=O)F)cc1: No
CC1=C2C(=CC(C)(C)[C@@H]2O)C(=O)[C@](C)(O)C12CC2: Yes

###

- test: NCI Yeast Anticancer Drug Screen. Data for the cln2 rad14 strain (AID 165);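 further: 0% = growth equal to vehicle treated cultures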
- condition summary: S. cerevisiae cln2 rad14 strain, at 50.0 µM, hits give high values
- Method: Growth inhibition of yeast strains with defined genetic alterations is measured as a screen for potential anti-cancer activity. Selected strains with alterations in DNA damage repair or cell cycle control were exposed to compounds and growth inhibition was measured relative to vehicle treated controls. The strain used in this assay is cln2 rad14
About 79,000 compounds went through this panel and 15% of them were active in at least one assay; those are over-represented in the sample as a whole.
quantity kind: growth inhibition (%)

CC12CCC3C(CCC4(O)C=CCCC34C=O)C1(O)CC(O)C2c1ccc(=O)oc1 (stereo not drawn): -15.8
COc1cc(OC)cc(C(=O)Cc2c(C(=O)c3ccccc3)c3ccccc3n2C(=O)c2ccccc2)c1: -50.3
CC(=O)O.CC(=O)O.[Co+2].[NH-]C(CCC(N)=O)C(=O)O.[NH-]C(CCC(N)=O)C(=O)O (stereo not drawn): -4
O=c1c2ccccc2sc2c1c(N(CCCl)CCCl)cc1ccccc12: 17.5
O=C(Cc1ccccc1)OCc1ccco1: -41.5
CC1C(C(=O)c2ccc(-c3ccccc3)cc2)N1C(C)(C)C (stereo not drawn): 23.4
CN(C)C(=O)Sc1ccc(S(=O)(=O)F)c(Cl)c1Cl: 21.9
CC(Cl)CN1COc2ccc3ccc4c(c3c2C1)CN(CC(C)Cl)CO4 (stereo not drawn): -17.9
Nc1ccc(/C=C/C(=O)Nc2ccc(S(=O)(=O)F)cc2)cc1: 40.1
O=C1C=CC=C[C@@H]2C(C3OCCO3)CC[C@H]12.[C-]#[O+].[C-]#[O+].[C-]#[O+].[Fe] (stereo partly drawn): 23.1
COC(CNS(=O)(=O)c1ccccc1)[CH2][Hg][O]C(C)=O (stereo not drawn): 99.1
OC/C=C\c1ccc2c(c1)OCO2: -9
CC(C)CCC1(CCSC(=O)S)C(=O)NC(=O)NC1=O: -37.2
Cc1cc(-n2c(C)nc3ccccc3c2=O)on1: -47.5
COC(=O)C1C2CC3c4c(c5ccc(OC)cc5n4[N+](=O)[O-])CCN3CC2CC(OC(=O)c2cc(OC)c(OC)c(OC)c2)C1OC (stereo not drawn): -17.9
CCCC1C(=O)NC(=O)NC1=O: -10.9
C[C@]12CCC(=O)C=C1CC[C@H]1[C@@H]3CCC(=O)[C@@]3(C)CC[C@@]12F: -31.8
ClCC1CCN(CCc2ccccc2)CC1: -36.6
O=C1/C(=C\c2ccccc2)N2CCC1CC2: -70.6
O=c1oc2ccccc2c(O)c1C(c1ccc(O)cc1)c1c(O)c2ccccc2oc1=O: -2.95
CCCC(Br)C(=O)OCC (stereo not drawn): 0.15
O=[N+]([O-])O.[Sm]: 17.1
CS(=N)(=O)CCC(N)C(=O)O (stereo not drawn): 18.7

###

Form field: growth inhibition (one value per entry).
- test: NCI Yeast Anticancer Drug Screen. Data for the rad50 strain (AID 155);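 further: 0% = growth of vehicle-only cultures of the same strain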
- condition summary: S. cerevisiae rad50 strain growth inhibition; at 50.0 µM; hits give high values
Compounds without any hit were thinned out: in the full panel of roughly 79,000, 15% have a hit. Activity calls are given as the source filed them. Rule as the data show it: active = growth inhibition above about 70%; inactive = the rest.
quantity kind: growth inhibition

CC(NC1=NCCO1)c1ccco1 (stereo not given): 4.45% (inactive)
O=C([O-])C(F)(F)F.O=[N+]([O-])O.[Co+3].[NH2-].[NH2-].[NH2-].[NH2-].[NH2-]: 5.25% (inactive)
CCC[CH2][Sn]([CH2]CCC)([O]C(=O)CCC(C)=O)[O]C(=O)CCC(C)=O: 87% (active)
O=C(Cc1c2ccccc2cc2c1ccc1ccccc12)N(CCCl)CCCl: 98.8% (active)
O=P(Oc1ccccc1)(Oc1ccccc1)N(CCCl)CCCl: 0.2% (inactive)

###

- test: NCI Yeast Anticancer Drug Screen. Data for the mlh1 rad18 strain (AID 175)
- condition summary: S. cerevisiae mlh1 rad18 strain growth inhibition; at 50.0 µM; hits give high values
Compounds without any hit were thinned out: in the full panel of roughly 79,000, 15% have a hit. Calls of active or inactive are those of the source. No stated cut-off is given here; in the data, active means growth inhibition above about 70%; inactive means the rest.
Form field: growth inhibition (one value per entry).
quantity kind: growth inhibition

C[C@@]1(CCCCCCCCCCc2ccccc2)C[C@@]2(C)OC(=O)C[C@H]2OO1: -25.6% (inactive)
[pH]1p2[pH]p3p1p3[pH]2.c1cc[c]([Ge]([c]2ccccc2)[c]2ccccc2)cc1.c1cc[c]([Ge]([c]2ccccc2)[c]2ccccc2)cc1.c1cc[c]([Ge]([c]2ccccc2)[c]2ccccc2)cc1: 18.4% (inactive)
O=C(CF)[O][Sb]([O]C(=O)CF)([c]1ccccc1)([c]1ccccc1)[c]1ccccc1: 33.8% (inactive)
Clc1ccc2c(c1)Cc1cc(N(CCBr)CCBr)ccc1-2: 47.1% (inactive)

###

Form field: growth inhibition (one value per entry).
- test: NCI Yeast Anticancer Drug Screen. Data for the mlh1 rad18 strain (AID 175)
- condition summary: S. cerevisiae mlh1 rad18 strain growth inhibition; at 50.0 µM (retest, dose inferred, filed as 5.0); hits give high values
The panel holds about 79,000 compounds, 15% with a hit somewhere; the sample as a whole holds those more often.
quantity kind: growth inhibition (%)

O=C(CBr)OCC(Br)CBr (stereo unspecified): 49
Nc1cc2[nH]cnc2c([Se])n1: -29
O=c1ccc(N=Cc2ccc(N(CCCl)CCCl)cc2)ccc1O: 98
O=[As](O)(O)c1ccc(Cc2ccc([As](=O)(O)O)cc2)cc1: 99
CCCCCCCCCCCCCC(=O)O[C@H]1CC[C@H](NC(=O)[C@H](OC)[C@H](O)[C@@H](O)[C@H](O)/C=C/C(C)C)C(=O)NC1: 94
CCN(CC)C(=S)[S-].CCN(CC)C(=S)[S-].O=C(O)CC([S-])C(=O)O.[Fe+3] (stereo unspecified): 98
COc1cc(OC)c(/C=C(\C)[N+](=O)[O-])cc1Br: 1
Oc1cc(Cl)c(Cl)cc1Cl.[Cu+2]: 97
COC1CC(OC2C(C)OC(OC3C(C)OC(OC4CCC5(C)C(=CCC6(O)C5CC(OC(=O)c5ccc(O)cc5)C5(C)C(O)(C(C)=O)CCC65O)C4)CC3OC)CC2OC)OC(C)C1O (stereo unspecified) (tested in a mixture with another compound): 83
CC(=O)NC1C(O[C@H]2CC[C@@]3(C)C(CC[C@]4(C)C3CC=C3C5CC(C)(C)CC[C@]5(C(=O)O)CCC34C)C2(C)C)OC(CO)C(O)C1O (stereo partly specified): 99
COc1cc(/C=C/[N+](=O)[O-])c(OC)cc1Br: 40
O=P(Oc1ccccc1)(Oc1ccccc1)Oc1ccccc1Cl: -3
O=C1c2ccccc2CCC1Br (stereo unspecified): 99
COC(CNS(=O)(=O)c1ccccc1)[CH2][Hg][O]C(C)=O (stereo unspecified): 11
CS(=N)(=O)CCC(N)C(=O)O (stereo unspecified): -114
CCOc1c(Br)cc(N=Cc2ccc(N(CCCl)CCCl)c(OC)c2)cc1Br: 95
O=C(Nc1n[c]([Hg][Cl])[c]([Hg][Cl])s1)OCc1ccccc1: 98
O=[N+]([O-])/C=C/c1c(Cl)cccc1Cl: 99
O=c1[nH]c2ccccc2n1C1CCN(CCCC(c2ccc(F)cc2)c2ccc(F)cc2)CC1: 92
O=[N+]([O-])/C=C/c1ccccc1Cl: 99
NC(=O)c1ccc(C(=O)Nc2ccc([As](=O)(O)O)cc2)cc1: 9
CCCCCCC(=O)[O][Hg][c]1ccccc1: 99
COc1c[c]([Hg][O]C(C)=O)c(OC)c(NC(=O)CC(C)=O)[c]1[Hg][O]C(C)=O: 95
CCC[CH2][Sn]1([CH2]CCC)[O]C(=O)c2ccc(C)cc2[O]1: 97
CC[n+]1c(/C=C/c2ccc(N(CCCl)CCCl)cc2)ccc2cc(Br)ccc21: 96
[O-][n+]1ccccc1S: 99
O=C1N[C@H]2[C@H](O)[C@H](O)[C@@H](O)[C@H](O)[C@@H]2c2cc3c(c(O)c21)OCO3: 84
[O-][n+]1onc2c1-c1nonc1CC2: 11
CC[CH](C)[Sn](=[O])[c]1ccccc1 (stereo unspecified): 95
O=C1C(C(Nc2ccccc2)c2ccccc2)=C([O-])c2ccccc21.O=C1C(C(Nc2ccccc2)c2ccccc2)=C([O-])c2ccccc21.[Co+2] (stereo unspecified): 64
Oc1c(O)c(Br)c(Br)c(Br)c1Br: 99
ClC(CN1CCCCC1)C(Cl)c1ccccc1 (stereo unspecified): 57
CC(=O)O[C@H]1CCC2[C@@H]3CCC4Nc5oncc5C[C@]4(C)C3CC[C@@]21C (stereo partly specified): 91
Nc1nc(N)c(-c2ccc(Cl)c(Cl)c2)c(COc2cccc(CNS(=O)(=O)c3cccc(S(=O)(=O)F)c3)c2)n1: 83
COC1CC(C)C(OC)C2=CC(=O)C=C(NC(=O)/C(C)=C/C=C\C(C)C(OC(N)=O)/C(C)=C\C(C)C1OC)C2=O (stereo unspecified): 98
CC(=O)[O-].O=C([CH-]C(=O)c1ccccc1)c1ccccc1.O=C([CH-]C(=O)c1ccccc1)c1ccccc1.[Y+3]: 13
COC(C)(C)[CH]([Hg][Cl])n1ccccc1=O (stereo unspecified): 98
[Hg][c]1ccccc1: 53
CCCCCN1C(=O)C2C(C1=O)C1(Cl)C(Cl)=C(Cl)C2(Cl)C1(Cl)Cl (stereo unspecified): 96
CC(=O)CC(=O)Nc1c(C)[c]([Hg][O]C(C)=O)c(C)[c]([Hg][O]C(C)=O)[c]1[Hg][O]C(C)=O: 93
CCOP(=S)(OCC)SSSP(=S)(OCC)OCC: 49
